# System: α-isomaltosylglucosaccharide-forming enzyme
# assayOverview: Action on saccharides (substrates), Enzyme of Strain C9
# Assay type: biochemical, Bacillus globisporus C9
# Design: key: −: it showed no change; +: it showed a slight reduction of the color spot of the substrate and the formation of other reaction product; ++: it showed a high reduction of the color spot of the substrate and the formation of other reaction product; +++: it showed a substantial disappearance of the substrate spot and the formation of other reaction product
# recordedConditions: two units/g substrate, substrate 2% (w/v), 30° C., pH 6.0, 24 hours, TLC

[
  {
    "molecule": "OC[C@H]1O[C@H](OC[C@H]2O[C@H](O[C@H]3[C@H](O)[C@@H](O)C(O)O[C@@H]3CO)[C@H](O)[C@@H](O)[C@@H]2O)[C@H](O)[C@@H](O)[C@@H]1O (stereo partly drawn)",
    "Enzymatic action, Enzyme of Strain C9": "−"
  },
  {
    "molecule": "OC[C@H]1O[C@H](O[C@H]2O[C@H](CO)[C@@H](O[C@H]3O[C@H](CO)[C@@H](O)[C@H](O)[C@H]3O)[C@H](O)[C@H]2O)[C@H](O)[C@@H](O)[C@@H]1O [Maltosyl glucoside]",
    "Enzymatic action, Enzyme of Strain C9": "++"
  },
  {
    "molecule": "OC[C@H]1O[C@H](O[C@H]2[C@H](O)[C@@H](CO)OC(O)[C@@H]2O)[C@H](O)[C@@H](O)[C@@H]1O (stereo partly drawn)",
    "Enzymatic action, Enzyme of Strain C9": "+"
  },
  {
    "molecule": "OC[C@@H](O)[C@@H](O[C@H]1O[C@H](CO)[C@@H](O[C@H]2O[C@H](CO)[C@@H](O)[C@H](O)[C@H]2O)[C@H](O)[C@H]1O)[C@H](O)[C@@H](O)CO",
    "Enzymatic action, Enzyme of Strain C9": "+"
  },
  {
    "molecule": "OC[C@H]1O[C@@H](O[C@H]2O[C@H](CO)[C@@H](O)[C@H](O)[C@H]2O)[C@H](O)[C@@H](O)[C@@H]1O",
    "Enzymatic action, Enzyme of Strain C9": "+"
  },
  {
    "molecule": "OC[C@H]1O[C@H](OC[C@H]2O[C@H](OC[C@H]3OC(O)[C@H](O)[C@@H](O)[C@@H]3O)[C@H](O)[C@@H](O)[C@@H]2O)[C@H](O)[C@@H](O)[C@@H]1O (stereo partly drawn)",
    "Enzymatic action, Enzyme of Strain C9": "−"
  },
  {
    "molecule": "OC[C@H]1O[C@H](O[C@H]2O[C@H](CO)[C@@H](O)[C@H](O)[C@H]2O)[C@H](O)[C@@H](O)[C@@H]1O",
    "Enzymatic action, Enzyme of Strain C9": "−"
  },
  {
    "molecule": "OC[C@H]1O[C@H](O[C@H]2O[C@H](CO)[C@@H](O)[C@H](O)[C@H]2O[C@H]2O[C@H](CO)[C@@H](O)[C@H](O)[C@H]2O)[C@H](O)[C@@H](O)[C@@H]1O",
    "Enzymatic action, Enzyme of Strain C9": "−"
  },
  {
    "molecule": "OC[C@H]1O[C@@](CO)(O[C@H]2O[C@H](CO)[C@@H](O[C@H]3O[C@H](CO)[C@@H](O)[C@H](O)[C@H]3O)[C@H](O)[C@H]2O)[C@@H](O)[C@@H]1O",
    "Enzymatic action, Enzyme of Strain C9": "+"
  },
  {
    "molecule": "OC[C@H]1O[C@@H](O[C@H]2[C@H](O)[C@@H](O)C(O)O[C@@H]2CO)[C@H](O)[C@@H](O)[C@H]1O (stereo partly drawn)",
    "Enzymatic action, Enzyme of Strain C9": "−"
  },
  {
    "molecule": "OC[C@H]1O[C@@](CO)(O[C@H]2O[C@H](CO)[C@@H](O)[C@H](O)[C@H]2O)[C@@H](O)[C@@H]1O",
    "Enzymatic action, Enzyme of Strain C9": "−"
  },
  {
    "molecule": "OC[C@H]1O[C@H](O[C@H]2[C@H](O)[C@@H](O)[C@H](O)O[C@@H]2CO)[C@H](O)[C@@H](O)[C@@H]1O",
    "Enzymatic action, Enzyme of Strain C9": "+"
  }
]
